The measurements presented in this section are drawn from patent US20050282818A1.

target: TRAF6/Uev1A/Ubc13 (Homo sapiens, UniProt Q9Y4K3); test: TRAF6/Uev1A/Ubc13 plate-based ubiquitin ligase assay
measurement.name: IC50

# example entries with known answers
>  <compound.smiles>
O=S(=O)(c1cccc2nsnc12)N1CCC(Oc2ccccc2C(F)(F)F)CC1

>  <assay.value>
≥ 20 µM

$$$$
>  <compound.smiles>
CC(=O)OCCCNc1cc(SC2CCCCC2)c2nonc2c1[N+](=O)[O-]

>  <assay.value>
≥ 20 µM

$$$$
>  <compound.smiles>
Cc1cc(C)cc(-c2ccc([N+](=O)[O-])c3nonc23)c1

>  <assay.value>
≥ 20 µM

$$$$
>  <compound.smiles>
O=[N+]([O-])c1ccc(N2CCC(c3ccncc3)CC2)c2nonc12

>  <assay.value>
≥ 20 µM

$$$$
>  <compound.smiles>
O=[N+]([O-])c1ccc(Nc2ccccc2OC(F)(F)F)c2nonc12

>  <assay.value>
≥ 20 µM

$$$$

What does the data say about its IC50? Entry: O=[N+]([O-])c1ccc(-c2ccccc2)c2nonc12
≥ 20 µM

Give its IC50 value. Item: COc1ccccc1NS(=O)(=O)c1cccc2nonc12
1 to 20 µM

Return reported IC50; argument: N#Cc1cccnc1N1CCN(S(=O)(=O)c2ccc(Cl)c3nonc23)CC1
1 to 20 µM

* * *

# pIC50 per entry
system: UACC-257 cells; test: Cell proliferation PAD assay, UACC-257; format: cell-based; details: Homo sapiens, UACC257 cells, 6pt, 48 hours
pIC50: −log10 of the molar value.

# example entries with known answers
>  <compound>
O=S(=O)(Nc1cccc2nsnc12)c1ccc(Oc2ccccc2)cc1 [compound 94]

>  <assay.value>
4.70 to 6.00

$$$$
>  <compound>
O=[N+]([O-])c1cc(Cl)c(Oc2ccc(S(=O)(=O)Nc3cccc4nonc34)cc2Cl)c(Cl)c1 [compound 79]

>  <assay.value>
≤ 4.70

$$$$
>  <compound>
CC1CC(C)CN(c2ccc([N+](=O)[O-])c3nonc23)C1 (centres unmarked) [compound 144]

>  <assay.value>
≤ 4.70

$$$$
>  <compound>
O=[N+]([O-])c1ccc(Oc2ccc(S(=O)(=O)Nc3cccc4nonc34)cc2Cl)c(C(F)(F)F)c1 [compound 114]

>  <assay.value>
4.70 to 6.00

$$$$
>  <compound>
O=[N+]([O-])c1ccc(N2CCN(c3ncccc3C(F)(F)F)CC2)c2nonc12 [compound 148]

>  <assay.value>
4.70 to 6.00

$$$$
>  <compound>
Cc1ccc(Cl)cc1N1CCN(c2ccc([N+](=O)[O-])c3nonc23)CC1 [compound 145]

>  <assay.value>
≤ 4.70

$$$$
>  <compound>
O=[N+]([O-])c1ccc(N2CCC(O)(c3ccc(Cl)cc3)CC2)c2nonc12 [compound 159]

>  <assay.value>
≤ 4.70

$$$$

Let us move to another entry and its pIC50.
State the recorded pIC50 for this entry: O=S(=O)(Nc1cccc2nonc12)c1ccc(Oc2ncc(C(F)(F)F)cc2Cl)cc1 [compound 78]
4.70 to 6.00

* * *

Biological target: TRAF6/Uev1A/Ubc13 (Homo sapiens)
Sequence (Q9Y4K3 1-522): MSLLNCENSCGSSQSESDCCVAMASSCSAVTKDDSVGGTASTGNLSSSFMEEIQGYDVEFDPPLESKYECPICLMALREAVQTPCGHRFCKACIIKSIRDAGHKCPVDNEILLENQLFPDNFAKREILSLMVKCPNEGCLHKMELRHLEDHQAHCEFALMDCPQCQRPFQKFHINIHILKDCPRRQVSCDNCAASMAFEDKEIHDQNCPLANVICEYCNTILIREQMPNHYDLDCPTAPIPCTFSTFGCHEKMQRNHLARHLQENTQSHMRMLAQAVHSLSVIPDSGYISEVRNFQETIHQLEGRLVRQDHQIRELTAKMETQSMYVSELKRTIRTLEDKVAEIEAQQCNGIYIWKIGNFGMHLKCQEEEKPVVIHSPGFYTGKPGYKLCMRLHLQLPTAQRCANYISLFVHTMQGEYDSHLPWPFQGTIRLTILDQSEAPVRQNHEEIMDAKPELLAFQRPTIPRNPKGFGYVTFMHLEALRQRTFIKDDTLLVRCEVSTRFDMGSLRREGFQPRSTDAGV
Test: TRAF6/Uev1A/Ubc13 plate-based ubiquitin ligase assay
Method: For the assays described below, the TRAF6/Uev1A/UBC13 assay is the biochemical plate-based assay of TRAF6 ligase activity using Ubc13 as the E2 enzyme. […] A 96-well Ni-plate was blocked with 100 μl of 1% casein in PBS for 1 hour at room temperature. […] The amount of ubiquitin was measured by adding 100 μl of Lumino substrate (1:5 dilution) and reading the luminescence with a fluorimeter. […]
Catalogue of IC50 values

The examples below pair each entry with its known result.
>  <compound>
FC(F)(F)c1cc(-c2ccccc2)c2nonc2c1 [compound 474]

>  <assay.value>
≥ 20 µM

$$$$
>  <compound>
O=S(=O)(c1c(Cl)ccc2nonc12)N1CCN(c2ncc(C(F)(F)F)cc2Cl)CC1 [compound 179]

>  <assay.value>
1 to 20 µM

$$$$
>  <compound>
Cc1cccc(-c2cc(C(F)(F)F)cc3nonc23)c1C [compound 473]

>  <assay.value>
≥ 20 µM

$$$$
>  <compound>
CCN(CC)c1cc(N2CCC3(CC2)OC(=O)c2ccccc23)c2nonc2c1[N+](=O)[O-] [compound 303]

>  <assay.value>
≥ 20 µM

$$$$
>  <compound>
CCN(CC)c1cc(N2CCN(c3ncccc3C#N)CC2)c2nonc2c1[N+](=O)[O-] [compound 294]

>  <assay.value>
≥ 20 µM

$$$$
>  <compound>
O=S(=O)(c1ccc(Cl)c2nonc12)N1CCN(CCOCCO)CC1 [compound 185]

>  <assay.value>
≥ 20 µM

$$$$
>  <compound>
O=S(=O)(c1ccc(Sc2ccc(O)cc2)c2nonc12)N1CCC(Oc2ncccn2)CC1 [compound 226]

>  <assay.value>
1 to 20 µM

$$$$
>  <compound>
N#Cc1ccc(N2CCN(c3ccc4nonc4c3S(=O)(=O)N3CCN(c4ccc(C#N)cn4)CC3)CC2)nc1 [compound 210]

>  <assay.value>
≥ 20 µM

$$$$

Shifting focus to the compound that follows.
What does the record list as IC50 for CC(=O)N1CCN(S(=O)(=O)c2c(Cl)ccc3nonc23)CC1 [compound 201] ?
≥ 20 µM

* * *

Biological target: TRAF6/Uev1A/Ubc13 (Homo sapiens)
Sequence (Q9Y4K3 1-522): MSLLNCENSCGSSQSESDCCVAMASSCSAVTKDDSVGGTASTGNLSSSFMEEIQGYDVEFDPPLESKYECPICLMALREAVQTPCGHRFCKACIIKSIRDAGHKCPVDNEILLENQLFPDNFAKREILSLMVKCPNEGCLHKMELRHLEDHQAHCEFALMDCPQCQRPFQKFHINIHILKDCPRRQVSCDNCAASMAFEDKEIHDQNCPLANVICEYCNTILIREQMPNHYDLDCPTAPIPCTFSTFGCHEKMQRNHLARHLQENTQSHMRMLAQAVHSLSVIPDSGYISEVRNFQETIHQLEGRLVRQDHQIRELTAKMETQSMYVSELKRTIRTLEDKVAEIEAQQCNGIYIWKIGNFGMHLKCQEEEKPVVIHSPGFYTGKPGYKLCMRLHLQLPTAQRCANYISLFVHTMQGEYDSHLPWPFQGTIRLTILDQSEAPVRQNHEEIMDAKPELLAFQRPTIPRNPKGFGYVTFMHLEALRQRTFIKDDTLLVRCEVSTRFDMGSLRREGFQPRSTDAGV
Test: TRAF6/Uev1A/Ubc13 plate-based ubiquitin ligase assay
measurement.name: IC50

Data request, read-out IC50, for O=[N+]([O-])c1ccc(-c2cccc3ccccc23)c2nonc12 [compound 469]
≥ 20 µM

State the recorded IC50 for this entry: O=S(=O)(c1ccc(N2CCN(c3ccccc3)CC2)c2nonc12)N1CCN(c2ccccc2)CC1 [compound 187]
1 to 20 µM

State the recorded IC50 for this entry: CC(C)(C)c1ccc(-c2cc(-c3ccc(C(C)(C)C)cc3)c3nonc3c2)cc1 [compound 422]
≥ 20 µM

* * *

test system: H1299 cells; assay: Cell proliferation PAD assay, H1299; type: cell-based; conditions: 3pt, 48 hours, read-out: H1299 3pt
measurement.name: IC50

// query IC50 value for entry O=S(=O)(c1ccc(Cl)c2nonc12)N1CCC(Oc2ncccn2)CC1
1 to 20 µM

* * *

Biological target: TRAF6/Uev1A/Ubc13 (Homo sapiens)
Assay: TRAF6/Uev1A/Ubc13 plate-based ubiquitin ligase assay
Protocol: For the assays described below, the TRAF6/Uev1A/UBC13 assay is the biochemical plate-based assay of TRAF6 ligase activity using Ubc13 as the E2 enzyme. […] A 96-well Ni-plate was blocked with 100 μl of 1% casein in PBS for 1 hour at room temperature. […] The amount of ubiquitin was measured by adding 100 μl of Lumino substrate (1:5 dilution) and reading the luminescence with a fluorimeter. […]
Listed here: items and their measured IC50.

Name the recorded IC50 for O=c1[nH]c2ccccc2n1C1CCN(c2ccc([N+](=O)[O-])c3nonc23)CC1 [compound 160] .
≥ 20 µM

Item under review: COc1ccc(-c2cc3nsnc3cc2F)cc1OC [compound 463] . Reported IC50?
≥ 20 µM

What does the data say about its IC50? Entry: O=S(=O)(Nc1ccccc1F)c1ccc(Cl)c2nonc12 [compound 345]
≥ 20 µM

Look at this molecule and give its reported IC50. Cc1cc(C)cc(-c2ccc(N)c3nonc23)c1 [compound 426]
≥ 20 µM

What value of IC50 has been reported for the following molecule? Cc1cc(NS(=O)(=O)c2ccc(Cl)c3nonc23)no1 [compound 368]
≥ 20 µM

Fill in the blank: the reported IC50 of CC1CN(c2ccc3nonc3c2S(=O)(=O)N2CC(C)OC(C)C2)CC(C)O1 (centres unmarked) [compound 205] is ____.
≥ 20 µM

Quick one: IC50 for O=S(=O)(Nc1cccc2nsnc12)c1ccc(Oc2cccnc2)cc1 [compound 116] ?
≥ 20 µM

Reported IC50, molecule O=S(=O)(c1ccc(Sc2ccc(O)cc2)c2nonc12)N1CCN(c2ccccc2)CC1 [compound 249] : ____
1 to 20 µM

Could you tell me which IC50 is on file for O=S(=O)(Nc1ccc(Oc2ccc(Cl)cc2)cc1)c1cccc2nonc12 [compound 104] ?
≥ 20 µM
